- Protocol summary: Pharmacokinetics after intravenous and oral administration in rats
- Format: in vivo
- Experimental context: rat, plasma, iv dosing, dose 1 mg/kg (Ex. 9: 0.6, Ex. 18: 0.5, Ex. 50: 0.96 mg/kg)
This listing pairs compounds with measured AUC(0-t).
Numbers only; they are read as ng·h/mL.

// worked examples, AUC(0-t) included
CCC1CN(c2ccc(C#N)cn2)CCC1Nc1nc(Nc2ccn3c(C)nnc3c2)ncc1Cl (centres unmarked) = 949
CC(C)(O)c1nc2cc(Nc3ncc(Cl)c(NC4CCN(c5ccc(C#N)cn5)CC4)n3)ccn2n1 = 2830
CCC1CN(c2ccc(C#N)cn2)CCC1Nc1nc(Nc2ccn3ccnc3c2)ncc1Cl (centres unmarked) = 2690
CC(C)(O)Cc1nc2ccc(Nc3ncc(Cl)c(NC4CCN(c5ccc(C#N)cn5)CC4)n3)cn2n1 = 1470
CC(C)(O)c1cnc2cc(Nc3ncc(Cl)c(NC4CCN(c5ccc(C#N)cn5)CC4)n3)ccn12 = 1090
CC(C)(O)Cc1cn2cc(Nc3ncc(Cl)c(NC4CCN(c5ccc(C#N)cn5)CC4)n3)ccc2n1 = 464
CC(C)(O)Cn1nnc2cc(Nc3ncc(Cl)c(NC4CCN(c5ccc(C#N)cn5)CC4)n3)ccc21 = 752

Please turn your attention to the following entry.
Request: Which AUC(0-t) is reported for this compound? `Cc1cnc2cc(Nc3ncc(Cl)c(NC4CCN(c5ccc(C#N)cn5)CC4)n3)cnn12`
Result: 1420

Reference source: patent US10683297B2
